# Tested on: T-47D breast
# PROCEDURE SUMMARY: NCI tumour cell line growth inhibition, 48 h; in the data active means GI50 below about 0.43 µM; inactive means the rest
Labels: active, inactive

COMPOUND | CATEGORY
O=C1NCc2ccc3c(-c4cccc(Cl)c4)c[nH]c3c21 | active
N#Cc1c(Sc2ccccc2N)cccc1Sc1ccccc1N | inactive
ClCc1cccc(Cn2cnc3c(Cl)ncnc32)c1 | inactive
O=C(NNc1nc(Cl)nc(N2CCN(C(c3ccccc3)c3ccccc3)CC2)n1)c1ccccc1 | inactive
COc1ccc(-c2nc3sc(C)cn3c2/C=C/C(=O)c2cc(OC)c(OC)c(OC)c2)cc1 | inactive
C=C1CC2(OC1=O)C(=O)N(CCCCCCCN1C(=O)C3(CC(=C)C(=O)O3)c3ccccc31)c1ccccc12 (stereo unspecified) | inactive
COc1ccc(N=C2CSc3nnc(-c4cc(F)c(Cl)cc4Cl)n3N2)cc1 | inactive
CC(C)C[C@H](NC(=O)[C@H](Cc1cccc2ccccc12)NC(=O)N1CCOCC1)B(O)O | active
CCOC(=O)c1ccc(NC(=O)N2CC(C)OC(C)C2)cc1 (stereo unspecified) | inactive
COc1ccc2nc(N/N=C(\C)c3ccccn3)cc(C)c2c1 | active
COc1ccc2c(c1)/C(=C\c1c(C)nc3sc(C)cn13)C(=O)N2C | inactive
O=c1oc2cc(OS(=O)(=O)c3ccc(F)cc3)ccc2c2c1CCCCC2 | inactive
C=C1C(=O)O[C@H]2[C@H]1CC/C(Cn1cc(CNC(=O)Cc3cn(C(=O)c4ccc(Cl)cc4)c4ccc(OC)cc34)nn1)=C\CC[C@@]1(C)O[C@@H]21 | inactive
O=C(CSc1nc2ccccc2[nH]1)Nc1ccc(-c2nc3ccccc3s2)c(Cl)c1 | inactive
CNC(=O)c1cc(OC2CCC(NC(=O)Nc3ccc(Cl)c(C(F)(F)F)c3)CC2)ccn1 (stereo unspecified) | inactive
CCOc1cc2ncc(C#N)c(Nc3ccc(OCc4cccc(F)c4)c(Cl)c3)c2cc1NC(=O)CC1CCSS1 (stereo unspecified) | inactive

====

# Test system: SF-539 CNS
# PROCEDURE SUMMARY: NCI tumour cell line growth inhibition, 48 h
RECORDED ENDPOINT: TGI

COMPOUND | RESULT
Cc1c(-c2c(C)c3ccccc3n2S(=O)(=O)c2ccccc2)n(S(=O)(=O)c2ccccc2)c2ccccc12 | > 100 µM
CC(=O)c1ccc(N=Nc2ccc3nonc3c2N)cc1 | > 100 µM
Cc1ccc2[nH]cc(-c3nc(-c4c[nH]c5ncccc45)cs3)c2c1 | > 100 µM
COC1=CC(=O)c2ccccc2C1(CCC=C(C)C)C1=NC(C)(C)CO1 (stereo unspecified) | > 100 µM
O=C(O)c1c(-c2cccc3ccccc23)sc(-c2cccc3ccccc23)c1C(=O)O | > 100 µM
c1ccc2c(-c3cnc(-c4c[nH]c5ccccc45)cn3)c[nH]c2c1 | 73.7 µM
Cn1ccnc1Sc1ccc(/C=N/NC(=O)c2ccccc2O)cc1[N+](=O)[O-] | > 100 µM
CCCCCc1cc(OC(=O)c2c(O)cc(OC)cc2CCCCC)cc(O)c1C(=O)O | 30.5 µM
C=C1CC2(OC1=O)C(=O)N(CCCCCCCN1C(=O)C3(CC(=C)C(=O)O3)c3ccccc31)c1ccccc12 (stereo unspecified) | 4.27 µM
Cc1ccc(C(=O)OC[C@H]2CC[C@@H](n3cc(N(C)C4CCCCC4)c(=O)[nH]c3=O)O2)cc1 | 53 µM
O=C(c1ccc(Cl)cc1)c1ccc(OCC(=O)N2CCN(c3ccccc3)CC2)cc1 | > 100 µM
COc1nc(N(C)O)nc(N(C)O)n1 | 9.69 µM
CC[C@H](C)N(CCN)C(=O)c1cc2ccccc2c(-c2ccccc2Cl)n1 | 6.5 µM
COc1cc(-c2nc3cc(F)ccc3s2)ccc1O | > 100 µM
O=C(Nc1ccccc1F)c1c(O)nc2sccn2c1=O | > 10 µM
Cc1cnc2c(C)ccc([N+](=O)[O-])c2c1NCCCN(C)C | > 100 µM
